All values here come from patent US20210255193A1.

isoTOP-ABPP ratio (R) at liganded lysine P62333_K72 overview
- ASSAYED_TARGET: PSMC6 26S protease regulatory subunit 10B (Homo sapiens)
- Construct: isoTOP-ABPP experiments performed in cell lysates (in vitro); endogenous in cells; host or cells: soluble proteome of human cancer cell lines (MDA-MB-231, Ramos, Jurkat)
- ASSAY_SUMMARY: competitive isoTOP-ABPP
- Assay type: binding
- CONDITION_NOTES: 50 uM, in vitro, sol, 231
REPORTED_ENDPOINT: isoTOP-ABPP ratio (R) at liganded lysine P62333_K72

| MOLECULE | VALUE |
| --- | --- |
| O=C(Oc1ccc([N+](=O)[O-])cc1[N+](=O)[O-])c1ccc(-c2ccccc2)cc1 [fragment 37] | 0.9 |
| CC(=O)Oc1ccc([N+](=O)[O-])cc1[N+](=O)[O-] [fragment 43, 2,4-Dinitrophenyl acetate] | 1.9 |
| O=C(Oc1ccc([N+](=O)[O-])cc1[N+](=O)[O-])c1ccc(Oc2ccccc2)cc1 [fragment 39, 2,4-Dinitrophenyl 4-phenoxybenzoate] | 1.1 |
| CC(C)(C)OC(=O)NCCCC(=O)Oc1ccc([N+](=O)[O-])cc1[N+](=O)[O-] [fragment 41] | 1.2 |

---

- ASSAYED_TARGET: NLN Neurolysin, mitochondrial (Homo sapiens, UniProt Q9BYT8)
- Construct: isoTOP-ABPP experiments performed in cell lysates (in vitro); endogenous in cells; host or cells: soluble proteome of human cancer cell lines (MDA-MB-231; Ramos and Jurkat also prepared)
- ASSAY_SUMMARY: competitive isoTOP-ABPP
- Type: binding
- CONDITION_NOTES: 50 uM, 231 sol, in vitro
isoTOP-ABPP reactivity ratio at lysine Q9BYT8_K253 overview
REPORTED_ENDPOINT: isoTOP-ABPP reactivity ratio at lysine Q9BYT8_K253

| COMPOUND_STRUCTURE | VALUE |
| --- | --- |
| COc1cc(CCC(=O)Oc2ccc([N+](=O)[O-])cc2[N+](=O)[O-])cc(OC)c1OC | 4.1 |
| Cn1cc(CC(=O)Oc2ccc([N+](=O)[O-])cc2[N+](=O)[O-])c2ccccc21 | 1.7 |
| O=C(Oc1ccc([N+](=O)[O-])cc1[N+](=O)[O-])c1cc(C(F)(F)F)cc(C(F)(F)F)c1 | 1.5 |
| O=C(Oc1c(F)c(F)c(F)c(F)c1F)c1ccc2ccccc2n1 | 0.9 |

---

- ASSAYED_TARGET: MRPS24 28S ribosomal protein S24, mitochondrial (Homo sapiens)
- Construct: isoTOP-ABPP experiments performed in cell lysates (in vitro); endogenous in cells; host or cells: soluble proteome of human cancer cell lines (MDA-MB-231; Ramos and Jurkat also prepared)
- ASSAY_SUMMARY: competitive isoTOP-ABPP
- Assay type: binding
- CONDITION_NOTES: 50 uM, 231 sol, in vitro
isoTOP-ABPP reactivity ratio at lysine Q96EL2_K94 overview
REPORTED_ENDPOINT: isoTOP-ABPP reactivity ratio at lysine Q96EL2_K94

| COMPOUND_STRUCTURE | VALUE |
| --- | --- |
| O=C(CN1C(=O)c2ccccc2C1=O)Oc1c(F)c(F)c(F)c(F)c1F | 2.0 |
| O=C(CCc1cn(-c2ccccc2)nc1-c1ccccc1)Oc1ccc([N+](=O)[O-])cc1[N+](=O)[O-] | 2.2 |
| COc1cc(CCC(=O)Oc2ccc([N+](=O)[O-])cc2[N+](=O)[O-])cc(OC)c1OC | 1.4 |
| O=C(Oc1c(F)c(F)c(F)c(F)c1F)c1ccc2ccccc2n1 | 1.3 |
| O=C(CCc1coc2cc(F)ccc2c1=O)Oc1c(F)c(F)c(F)c(F)c1F | 2.7 |
| O=C(Oc1c(F)c(F)c(F)c(F)c1F)C1CCN(C(=O)OCc2ccccc2)CC1 | 1.5 |
| CCn1cc(C(=O)Oc2c(F)c(F)c(F)c(F)c2F)c(=O)c2ccc(C)nc21 | 1.0 |
| Cn1cc(CC(=O)Oc2ccc([N+](=O)[O-])cc2[N+](=O)[O-])c2ccccc21 | 5.1 |
| O=C(Oc1ccc([N+](=O)[O-])cc1[N+](=O)[O-])c1cc(C(F)(F)F)cc(C(F)(F)F)c1 | 1.6 |

---

- ASSAYED_TARGET: PLIN3 Perilipin-3 (Homo sapiens, UniProt O60664)
- Construct: isoTOP-ABPP experiments performed in cell lysates (in vitro); endogenous in cells; host or cells: MDA-MB-231 soluble lysate
- ASSAY_SUMMARY: competitive isoTOP-ABPP
- Format: binding
- CONDITION_NOTES: 50 uM, in vitro, sol, 231
REPORTED_ENDPOINT: isoTOP-ABPP ratio (R) at liganded lysine O60664_K140

| COMPOUND | VALUE |
| --- | --- |
| O=C(Oc1ccc([N+](=O)[O-])cc1[N+](=O)[O-])c1ccc(Oc2ccccc2)cc1 [fragment 39, 2,4-Dinitrophenyl 4-phenoxybenzoate] | 2.0 |
| CC(C)(C)OC(=O)NCCCC(=O)Oc1ccc([N+](=O)[O-])cc1[N+](=O)[O-] | 2.1 |
| O=C(Oc1ccc([N+](=O)[O-])cc1[N+](=O)[O-])C(c1ccccc1)(c1ccccc1)c1ccccc1 [fragment 42, 2,4-Dinitrophenyl 2,2,2-triphenylacetate] | 0.9 |
| O=C(Oc1ccc([N+](=O)[O-])cc1[N+](=O)[O-])c1ccc2ccccc2n1 | 1.1 |
| O=C(CCc1coc2cc(F)ccc2c1=O)Oc1ccc([N+](=O)[O-])cc1[N+](=O)[O-] | 1.5 |

---

- ASSAYED_TARGET: XRCC6 X-ray repair cross-complementing protein 6 (Homo sapiens, UniProt P12956)
- Construct: isoTOP-ABPP experiments performed in cell lysates (in vitro); endogenous in cells; host or cells: soluble proteome of human cancer cell lines (MDA-MB-231; Ramos and Jurkat also prepared)
- ASSAY_SUMMARY: competitive isoTOP-ABPP
- Assay type: binding
- CONDITION_NOTES: 50 uM_231_sol_in vitro
REPORTED_ENDPOINT: isoTOP-ABPP ratio, lysine P12956_K351

| MOLECULE | REPORTED_ENDPOINT | VALUE |
| --- | --- | --- |
| O=C(Oc1c(F)c(F)cc(F)c1F)c1cc(C(F)(F)F)cc(C(F)(F)F)c1 | isoTOP-ABPP ratio, lysine P12956_K351 | 1.5 |
| O=C(CCc1ccc2c(c1)OCO2)Oc1ccc([N+](=O)[O-])cc1[N+](=O)[O-] | isoTOP-ABPP ratio, lysine P12956_K351 | 1.9 |
| O=C(Oc1c(F)c(F)c(C(F)(F)F)c(F)c1F)c1cc(C(F)(F)F)cc(C(F)(F)F)c1 | isoTOP-ABPP ratio, lysine P12956_K351 | 1.4 |
| O=C(ON1C(=O)CCC1=O)c1cc(C(F)(F)F)cc(C(F)(F)F)c1 | isoTOP-ABPP ratio, lysine P12956_K351 | 2.5 |
| NC(=O)c1cc(C(F)(F)F)cc(C(F)(F)F)c1 [fragment 51, reference compound] | isoTOP-ABPP ratio, lysine P12956_K351 | 0.8 |
| N#Cc1ccc(C(=O)Oc2ccc([N+](=O)[O-])cc2[N+](=O)[O-])cc1 [fragment 44, 2,4-Dinitrophenyl 4-cyanobenzoate] | isoTOP-ABPP ratio, lysine P12956_K351 | 1.1 |

---

- ASSAYED_TARGET: STRN3 Striatin-3 (Homo sapiens, UniProt Q13033)
- Construct: isoTOP-ABPP experiments performed in cell lysates (in vitro); endogenous in cells; host or cells: soluble proteome of human cancer cell lines (MDA-MB-231, Ramos, Jurkat)
- ASSAY_SUMMARY: competitive isoTOP-ABPP
- Type: binding
- CONDITION_NOTES: 50 uM, 231 sol, in vitro
isoTOP-ABPP reactivity ratio at lysine Q13033_K755 overview
REPORTED_ENDPOINT: isoTOP-ABPP reactivity ratio at lysine Q13033_K755

| COMPOUND_STRUCTURE | VALUE |
| --- | --- |
| O=C(CCc1cn(-c2ccccc2)nc1-c1ccccc1)Oc1ccc([N+](=O)[O-])cc1[N+](=O)[O-] | 1.1 |
| O=C(Oc1c(F)c(F)c(F)c(F)c1F)C1CCN(C(=O)OCc2ccccc2)CC1 | 1.1 |
| COc1cc(CCC(=O)Oc2ccc([N+](=O)[O-])cc2[N+](=O)[O-])cc(OC)c1OC | 1.8 |
| O=C(Oc1ccc([N+](=O)[O-])cc1[N+](=O)[O-])c1cc(C(F)(F)F)cc(C(F)(F)F)c1 | 1.4 |

---

isoTOP-ABPP reactivity ratio at lysine O95197_K1022 overview
- ASSAYED_TARGET: RTN3 Reticulon-3 (Homo sapiens)
- Construct: isoTOP-ABPP experiments performed in cell lysates (in vitro); endogenous in cells; host or cells: MDA-MB-231 soluble lysate
- ASSAY_SUMMARY: competitive isoTOP-ABPP
- Format: binding
- CONDITION_NOTES: 50 uM, 231 sol, in vitro
REPORTED_ENDPOINT: isoTOP-ABPP reactivity ratio at lysine O95197_K1022

| COMPOUND | VALUE |
| --- | --- |
| COc1cc(CCC(=O)Oc2ccc([N+](=O)[O-])cc2[N+](=O)[O-])cc(OC)c1OC [fragment 33] | 1.4 |
| O=C(CCc1cn(-c2ccccc2)nc1-c1ccccc1)Oc1ccc([N+](=O)[O-])cc1[N+](=O)[O-] [fragment 29] | 6.2 |
| CCn1cc(C(=O)Oc2c(F)c(F)c(F)c(F)c2F)c(=O)c2ccc(C)nc21 [fragment 28] | 1.2 |
| O=C(Oc1ccc([N+](=O)[O-])cc1[N+](=O)[O-])C(c1ccccc1)c1ccccc1 [fragment 30, 2,4-Dinitrophenyl 2,2-diphenylacetate] | 20.0 |
